Tested on: HCV replicon cells (1b-Con1)
Procedure Summary: Replicon activity assay (cell-based anti-HCV activity)
Measurement Context: Hepatitis C virus, 72 h, three days post-dosing, replicon RNA level by real-time RT-PCR, read-out: EC50 (1b) Range
Below, each of the compounds is paired with its reported EC50 value.

C#C[C@@]1(O)[C@@H]2O[P@@](=O)(OCCCC(=O)OC(C)C)OC[C@H]2O[C@H]1n1ccc(=O)[nH]c1=O [Compound 13A]; > 10 µM
CC(C)OC(=O)CCCCO[P@]1(=O)OC[C@H]2O[C@@H](n3ccc(=O)[nH]c3=O)[C@](C)(Cl)[C@@H]2O1 [Compound 18B]; 1 to 10 µM
CC(C)OC(=O)CCCCO[P@]1(=O)OC[C@H]2O[C@@H](n3ccc(=O)[nH]c3=O)[C@](C)(N)[C@@H]2O1 [Compound 14B]; > 10 µM
C#C[C@]1(C)[C@@H]2O[P@](=O)(OCCC(=O)OC(C)C)OC[C@H]2O[C@H]1n1ccc(=O)[nH]c1=O [Compound 26B]; > 10 µM
C#C[C@]1(C)[C@@H]2O[P@](=O)(OCCCCC(=O)OC3CCCC3)OC[C@H]2O[C@H]1n1ccc(=O)[nH]c1=O [Compound 16B]; 1 to 10 µM

Would you mind telling me what EC50 value was observed for CC(C)OC(=O)CCCO[P@]1(=O)OC[C@H]2O[C@@H](n3ccc(N)nc3=O)[C@](C)(Cl)[C@@H]2O1 ? 0.25 to 1 µM

Item under review: C#C[C@@]1(O)[C@@H]2O[P@](=O)(OCCCCC(=O)OC3CCCC3)OC[C@H]2O[C@H]1n1ccc(=O)[nH]c1=O [Compound 24B] . Reported EC50? ≤ 0.25 µM

----------
Reported values of EC50 for individual entries
System: HCV replicon cells (1b-Con1)
Procedure Summary: Replicon activity assay (cell-based anti-HCV activity)
Measurement Context: Hepatitis C virus, 72 h, three days post-dosing, replicon RNA level by real-time RT-PCR, read-out: EC50 (1b) Range

I'd like to know its EC50. The compound in question is C#C[C@]1(C)[C@@H]2O[P@](=O)(OCCCCC(=O)OC(C)C)OC[C@H]2O[C@H]1n1ccc(=O)[nH]c1=O [Compound 15B] > 10 µM

Endpoint output: EC50 of CC(C)OC(=O)CCCO[P@@]1(=O)OC[C@H]2O[C@@H](n3ccc(=O)[nH]c3=O)[C@](C)(N)[C@@H]2O1 [Compound 12A] . Value? > 10 µM

Requested read-out: EC50. Entry: CC(C)OC(=O)CCCO[P@@]1(=O)OC[C@H]2O[C@@H](n3ccc(N)nc3=O)[C@](C)(Cl)[C@@H]2O1 1 to 10 µM

Any idea what EC50 was measured for C[C@@]1(Cl)[C@@H]2O[P@@](=O)(OCCCCC(=O)OC3CCCC3)OC[C@H]2O[C@H]1n1ccc(=O)[nH]c1=O [Compound 19A] ? 1 to 10 µM

Recorded EC50 for C[C@@]1(N)[C@@H]2O[P@@](=O)(OCCCC(=O)OC3CCCC3)OC[C@H]2O[C@H]1n1ccc(=O)[nH]c1=O , please? > 10 µM

Which EC50 value belongs to CCCCOC(=O)CCCO[P@@]1(=O)OC[C@H]2O[C@@H](n3ccc(=O)[nH]c3=O)[C@](C)(N)[C@@H]2O1 ? > 10 µM
